B1: NELF-E aptamer (parent)
chain: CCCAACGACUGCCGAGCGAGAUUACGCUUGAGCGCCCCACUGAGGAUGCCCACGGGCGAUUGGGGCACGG

# Variants of: B1
# assay.explanation: HiTS-RAP
# condition.info: with NELF-E (Drosophila)
Each entry below carries its reported log10 of Kd.
# log10 transformed; quantity=Kd; unit=nM

Check out these entries, answers already filled in.
C9G C37A ... 1.20
A4G G65U ... 0.83
A24G U47G ... 0.86

Next up:
Fill in the blank: the reported log10 of Kd of A19U A21U is ____.
0.83

Origin of measurements: the RNAGym collection of RNA variant scans (doi:10.1038/nmeth.2970)
